Recorded inhibition values for a group of molecules are listed next.
Target: Macrophage colony-stimulating factor 1 receptor (Homo sapiens);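 also: mean inhibition of FMS, from the GSK PKIS screening set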
Details: at 1 µM
Write the value in % as a bare number.

O=C1Nc2ccc(-c3cccnc3)cc2C1=Cc1cc(Br)c(O)c(Br)c1 : 7.78
C[C@@H](Oc1cc(-n2cnc3ccc(OCC4CCN(C)CC4)cc32)sc1C(N)=O)c1ccccc1C(F)(F)F : 8.46
COc1cc(/C=N/Nc2ncnc3c2cnn3C(C)C)ccc1O : 42.3

Problem: Sample Cc1cc(O)cc(C)c1/C=C/c1cncc(C(=O)N(C)C)c1 — what was its inhibition?
Result: 5.32

Problem: Sample COC(=O)c1cncc(/C=C/c2c(C)cc(O)cc2C)c1 — what was its inhibition?
Result: 37.7

Problem: Sample O=S(=O)(CCOCc1ccc(-c2ccc3ncnc(Nc4ccc(OCc5cccc(F)c5)c(Cl)c4)c3c2)o1)c1ccccc1 — what was its inhibition?
Result: 7.49

Problem: Sample ON=C1CCc2cc(-c3nc(C4CCNCC4)[nH]c3-c3ccncc3)ccc21 — what was its inhibition?
Result: 0.63

Problem: Sample Nc1ccc(C#Cc2cncnc2Nc2ccc(OCc3cccc(F)c3)c(Cl)c2)cc1 — what was its inhibition?
Result: 3.9

Problem: Sample Cc1nc(-c2ccccc2)n2nc(NCCCN3CCOCC3)ncc12 — what was its inhibition?
Result: 10.9

Problem: Sample CS(=O)(=O)CCNCc1nc(-c2ccc3ncnc(Nc4ccc(OCc5cccc(C(F)(F)F)c5)cc4)c3c2)cs1 — what was its inhibition?
Result: 8.87
